measurement target: T1, recombinant human CD300LB overexpressed on Jurkat cells (human, UniProt A8K4G0 18-201)
T1 construct: also called huCD300LB; huCD300LB-expressing Jurkat cells
T1 sequence: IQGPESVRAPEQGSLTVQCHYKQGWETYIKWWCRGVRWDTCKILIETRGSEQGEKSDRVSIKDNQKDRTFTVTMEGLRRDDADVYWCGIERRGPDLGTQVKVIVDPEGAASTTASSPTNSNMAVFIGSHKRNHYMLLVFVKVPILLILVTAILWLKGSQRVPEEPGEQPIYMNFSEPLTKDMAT
measurement protocol: flow cytometry on Jurkat cells overexpressing huCD300LB, apparent KD (Drake & Klakamp fit)

binder | Kd
anti-CD300LB antibody CD-04 (antibody, V domains shown) VH: QVQLQQSGAELVRPGASVTLSCRASGYTFTDFEMHWVKQTPLHGLEWIGAIAPETGGTAYNQKFKGKAILTADKSSSTAYVELRSLTSEDSAVYFCTRLGGMDYWGQGTSVTVSS VL: DVVMTQTPLSLPVSLGDQASISCRSSQTLVHNNGNTYLYWYLQKPGQSPKLLIYQVSNRFFGVPDRFSGSGSGTDFTLKISRVEAEDLGLYFCSQSTHVPWTFGGGTKLEIK | 32 nM
anti-CD300LB antibody CD-07 (antibody, V domains shown) VH: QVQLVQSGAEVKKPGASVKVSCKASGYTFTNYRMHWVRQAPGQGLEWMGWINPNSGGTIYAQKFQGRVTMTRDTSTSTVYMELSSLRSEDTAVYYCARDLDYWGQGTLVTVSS VL: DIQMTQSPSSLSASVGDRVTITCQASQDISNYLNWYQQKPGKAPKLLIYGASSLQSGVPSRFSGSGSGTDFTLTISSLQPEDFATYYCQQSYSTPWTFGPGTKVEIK | 66 nM
anti-CD300LB antibody CD-05 (antibody, V domains shown) VH: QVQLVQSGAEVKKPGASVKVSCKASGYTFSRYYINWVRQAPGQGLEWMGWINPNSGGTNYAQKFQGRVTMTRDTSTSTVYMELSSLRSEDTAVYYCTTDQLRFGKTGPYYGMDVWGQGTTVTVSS VL: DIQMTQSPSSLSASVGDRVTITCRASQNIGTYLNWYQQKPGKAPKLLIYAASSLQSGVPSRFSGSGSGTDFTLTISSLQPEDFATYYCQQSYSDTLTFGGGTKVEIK | 15 nM
anti-CD300LB antibody CD-09 (antibody, V domains shown) VH: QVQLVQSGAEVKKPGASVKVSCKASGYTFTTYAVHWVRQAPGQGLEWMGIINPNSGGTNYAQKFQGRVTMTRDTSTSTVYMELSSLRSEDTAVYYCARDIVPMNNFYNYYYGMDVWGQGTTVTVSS VL: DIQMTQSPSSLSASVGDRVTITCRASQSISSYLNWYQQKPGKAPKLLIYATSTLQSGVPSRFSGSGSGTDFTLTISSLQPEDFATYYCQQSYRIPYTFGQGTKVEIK | 109 nM
